Biological target: Peroxisome proliferator-activated receptor gamma (Homo sapiens, UniProt P37231)
Sequence (P37231 whole entry, the tested form may be a part): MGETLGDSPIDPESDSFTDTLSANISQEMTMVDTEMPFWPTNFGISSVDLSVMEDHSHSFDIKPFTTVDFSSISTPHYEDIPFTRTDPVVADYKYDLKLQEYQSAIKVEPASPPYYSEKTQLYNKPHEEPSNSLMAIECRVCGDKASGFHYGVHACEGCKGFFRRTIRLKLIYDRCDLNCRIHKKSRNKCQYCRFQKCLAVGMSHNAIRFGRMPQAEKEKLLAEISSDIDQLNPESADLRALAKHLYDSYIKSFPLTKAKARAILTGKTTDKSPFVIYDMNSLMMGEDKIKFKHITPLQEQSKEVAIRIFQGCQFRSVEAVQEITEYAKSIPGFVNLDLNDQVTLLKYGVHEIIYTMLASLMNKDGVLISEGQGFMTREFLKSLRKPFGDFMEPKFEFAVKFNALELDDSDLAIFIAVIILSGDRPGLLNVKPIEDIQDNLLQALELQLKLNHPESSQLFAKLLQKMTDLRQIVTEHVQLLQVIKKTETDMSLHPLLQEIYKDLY
Experiment: Transactivation of PPARgamma (unknown origin) transfected in human DRO cells after 24 hrs by dual luciferase reporter gene assay
Format: cell-based
reported property: EC50 (nM)

> print(dat)
                                   compound  result.number
1  Cc1cc(Oc2ccc3nc(COc4ccc(CC5SC(=O)NC5=O)cc4)n(C)c3c2)cc(C)c1N (stereo unspecified) [EFATUTAZONE]              1

---

EC50 values, listed per item
Target: Peroxisome proliferator-activated receptor gamma (Homo sapiens, UniProt P37231)
Experiment: Transactivation of GAL4-fused human PPARgamma transfected in HEK293BENA cells after 24 hrs by steady glo-luciferase reporter gene assay
Assay type: cell-based
reported property: EC50 (nM)

> print(dat)
                                   molecule                             target.system  measurement.unit  result.number
1  CCCCCS(=O)(=O)NC(=O)c1ccc2nc(C)n(Cc3ccc(Cl)cc3Cl)c2c1 [ATX08-001]  Peroxisome proliferator-activated receptor gamma (Homo sapiens, UniProt P37231)                nM            163
2  CCCc1nc2c(CO)cccc2n1Cc1ccc2c(c1)COc1ccccc1/C2=C(\C)c1noc(=O)[nH]1  Peroxisome proliferator-activated receptor gamma (Homo sapiens, UniProt P37231)                nM             33
3  CCc1nc2c(C)cc(C)nc2n1Cc1ccc2c(c1)COc1ccccc1/C2=C(\C)c1noc(=O)[nH]1  Peroxisome proliferator-activated receptor gamma (Homo sapiens, UniProt P37231)                nM             84
4  CCCc1nc2ccccc2n1Cc1ccc2c(c1)COc1ccccc1/C2=C(\C)c1noc(=O)[nH]1  Peroxisome proliferator-activated receptor gamma (Homo sapiens, UniProt P37231)                nM            2.7
5  CCCc1nc2c(C(=O)NCCO)cccc2n1Cc1ccc2c(c1)COc1ccccc1/C2=C(\C)c1noc(=O)[nH]1  Peroxisome proliferator-activated receptor gamma (Homo sapiens, UniProt P37231)                nM             57
6  CCCc1nc(-c2ccccc2)cn1Cc1ccc2c(c1)COc1ccccc1/C2=C(\C)c1noc(=O)[nH]1  Peroxisome proliferator-activated receptor gamma (Homo sapiens, UniProt P37231)                nM            151
7  CCCc1nc(-c2ccncc2)cn1Cc1ccc2c(c1)COc1ccccc1/C2=C(\C)c1noc(=O)[nH]1  Peroxisome proliferator-activated receptor gamma (Homo sapiens, UniProt P37231)                nM            593
8  CCc1nc2c(C)cc(C)nc2n1Cc1ccc2c(c1)CCc1ccccc1/C2=C(\C)c1noc(=O)[nH]1  Peroxisome proliferator-activated receptor gamma (Homo sapiens, UniProt P37231)                nM            177
9  CCCc1nc2c(NS(C)(=O)=O)cccc2n1Cc1ccc2c(c1)COc1ccccc1/C2=C(\C)c1noc(=O)[nH]1  Peroxisome proliferator-activated receptor gamma (Homo sapiens, UniProt P37231)                nM            166
